# Target Of Assay: Aspartate--tRNA(Asp/Asn) ligase (Mycobacterium tuberculosis (strain ATCC 25618 / H37Rv))
# Run Description: Assay for Asp RNA synthetase-1 from Mycobacterium tuberculosis
# Type: functional
# Set-up: scale not given: in the data most compounds retested in dose-response had high values
# Setup Conditions: 30 µM
Value Kind: Percent Effect (%)
Number only, in %; omit the unit.

Study these solved cases before continuing.
CCC1(CO)CCCN(c2ncccc2C#N)C1 (configuration not stated)
-1.73
O=C(c1cc(C2CC2)[nH]n1)N1CCCC(n2cncn2)C1 (configuration not stated)
-3.08
CCCNC(=O)c1ccc2c(c1)C(=O)N(CC(C)C)C2=O
1.59
CC(C)(C)c1nc(CN2CCCC2Cn2cccn2)no1 (configuration not stated)
-2.09
Cc1ccsc1C(=O)NCCCn1nc2ccccn2c1=O
1.69
COc1ncccc1CNC(=O)NC1CCOc2ccccc21 (configuration not stated)
-1.92

## Task Using known records, supply Percent Effect for C=C(C)C(=O)N1CCC(C(=O)c2cc(C)cnc2N)CC1
## Result -5.78

## Task Assign Percent Effect to the following record: CCN(CC)CCNC(=O)c1cc(C(C)C)nc(N2CCCC2)n1
## Result 2.18

## Task Answer with the recorded Percent Effect for the compound listed here: Cc1cnc(N2CCCC3(CCN(Cc4csc(C)n4)C3=O)C2)nc1 (configuration not stated)
## Result 6.32

## Task Name the recorded Percent Effect of the compound listed here: CN(C)C[C@H]1OC[C@@H]2CCN(S(=O)(=O)c3ccccc3)C[C@@H]21
## Result 4.96

## Task Give Percent Effect for the following compound: COc1cccc([C@@H]2CCN(Cc3ccc4ccccc4n3)C[C@H]2O)c1
## Result -2.79

## Task Specify Percent Effect for COCc1noc(C2(c3ccc(OC)cc3)CCOCC2)n1 and stop.
## Result -1.75
